- recorded-conditions: 293.15 K; 101.33 kPa; Liquid; Vibrating tube method
mass density listing for selected molecules.
Just the number please, in kg/m3, no unit attached.

Below are worked cases with known answers.
Cc1ccccc1C | 879.68
Cc1ccc(C)cc1 | 861.21
Cc1cccc(C)c1 | 864.11
CCCCO | 809.5

Alright, here's another molecule for you.
Request: Look at this molecule and give its reported mass density. `CCc1ccccc1`
Result: 866.54
